Task for the reader: assign each of the following compounds its reported IC50.
- study.system: Proton Pump (H^+/K^+-ATPase) (Sus scrofa, UniProt P19156)
- Sequence (P19156 2-1034 limits assumed): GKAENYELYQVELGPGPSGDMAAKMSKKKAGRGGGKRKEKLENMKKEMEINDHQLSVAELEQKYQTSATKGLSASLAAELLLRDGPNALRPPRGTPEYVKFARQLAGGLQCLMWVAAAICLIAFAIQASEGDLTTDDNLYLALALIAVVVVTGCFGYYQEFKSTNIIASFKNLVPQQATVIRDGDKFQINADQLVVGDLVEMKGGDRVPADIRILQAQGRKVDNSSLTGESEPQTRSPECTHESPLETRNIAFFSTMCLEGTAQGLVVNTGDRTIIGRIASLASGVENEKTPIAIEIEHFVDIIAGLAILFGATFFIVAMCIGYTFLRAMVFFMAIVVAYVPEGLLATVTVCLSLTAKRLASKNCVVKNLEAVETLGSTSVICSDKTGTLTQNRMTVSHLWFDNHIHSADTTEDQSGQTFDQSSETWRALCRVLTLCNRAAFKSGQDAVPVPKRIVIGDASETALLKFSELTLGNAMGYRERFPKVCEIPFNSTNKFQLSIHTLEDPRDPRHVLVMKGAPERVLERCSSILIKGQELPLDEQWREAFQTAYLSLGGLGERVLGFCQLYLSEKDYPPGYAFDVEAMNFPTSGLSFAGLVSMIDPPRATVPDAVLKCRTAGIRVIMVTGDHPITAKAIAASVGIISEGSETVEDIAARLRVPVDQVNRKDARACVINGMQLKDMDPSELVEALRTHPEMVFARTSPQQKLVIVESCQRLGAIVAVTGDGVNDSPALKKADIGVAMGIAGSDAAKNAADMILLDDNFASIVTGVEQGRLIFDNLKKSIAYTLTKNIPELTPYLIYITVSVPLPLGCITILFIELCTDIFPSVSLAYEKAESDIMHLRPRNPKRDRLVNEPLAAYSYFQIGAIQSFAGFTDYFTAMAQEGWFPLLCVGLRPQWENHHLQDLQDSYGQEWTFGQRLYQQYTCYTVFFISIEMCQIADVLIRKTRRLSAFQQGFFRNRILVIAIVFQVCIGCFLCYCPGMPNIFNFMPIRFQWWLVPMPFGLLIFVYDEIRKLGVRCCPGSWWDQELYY
- Sequence (P18434 whole entry partner): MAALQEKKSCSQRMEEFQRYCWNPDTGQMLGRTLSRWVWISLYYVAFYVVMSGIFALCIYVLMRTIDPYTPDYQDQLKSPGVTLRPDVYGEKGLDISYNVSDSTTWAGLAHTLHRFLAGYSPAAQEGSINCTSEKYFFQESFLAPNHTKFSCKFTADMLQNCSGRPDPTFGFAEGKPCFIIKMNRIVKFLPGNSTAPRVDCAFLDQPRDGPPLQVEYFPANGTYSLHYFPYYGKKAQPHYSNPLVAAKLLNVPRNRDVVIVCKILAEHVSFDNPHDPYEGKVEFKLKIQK
- protocol.details: Inhibitory effects on proton pump (H^+/K^+-ATPase) activity
- particulars: hog gastric vesicles; K^+ stimulated H^+/K^+-ATPase activity; 30 minutes at 37° C.
Where a name gives a salt, the structure may show the parent alone.
Numbers only, in nM.

| compound | test.readout | measured.value |
| --- | --- | --- |
| Cc1c(C)n(Cc2cccc(F)c2)c2c(N3CCc4ccccc4C3)nc(CNc3ccc(F)cc3)cc12 [Example 866, hydrochloride] | IC50 | 1030 |
| Cc1c(C)n(CC(C)C)c2c(NCc3ccc(Cl)cc3)nccc12 [Example 209, hydrochloride] | IC50 | 66 |
| C=CCCn1c(C)c(C)c2ccnc(NCc3ccccc3)c21 [Example 181, hydrochloride] | IC50 | 360 |
| Cc1ccccc1CNc1nccc2c(C)c(C)n(Cc3ccc(F)cc3)c12 [Example 219, hydrochloride] | IC50 | 1240 |
| Cc1c(C)n(Cc2cccc(Cl)c2)c2c(N3CCc4ccccc4C3)nc(CN3CCN(C)CC3)cc12 [Example 875, hydrochloride] | IC50 | 258 |

For every item below, please supply its IC50.
1. Cc1cccc(Cn2c(C)c(C)c3cc(C(=O)N4CCNCC4)nc(N4CCc5ccccc5C4)c32)c1 [Example 814, hydrochloride]
2. C=CCn1c(C)c(C)c2ccnc(-c3ccc(OC)cc3)c21 [Example 360, hydrochloride]
3. Cc1cccc(Cn2c(C)c(C)c3ccnc(N4CCc5ccccc5C4)c32)c1 [Example 515, hydrochloride]
4. C#CCn1c(C)c(C)c2ccnc(-c3ccc(C)cc3)c21 [Example 280, hydrochloride]
5. C=CCn1c(C)c(C)c2ccnc(N3CCc4ccccc4C3)c21 [Example 491, maleate]
6. Cc1c(C)n(Cc2ccccc2)c2c(NCc3ccc(F)cc3)nc(C(=O)N3CCN(C)CC3)cc12 [Example 906, hydrochloride]
7. Cc1c(C)n(CC2OCCO2)c2c(N(C)Cc3ccc(F)cc3)nccc12 [Example 158, hydrochloride]

Result block:
1: 31; 2: 278; 3: 200; 4: 345; 5: 2; 6: 31; 7: 270

Report IC50 for each item below.
1. Cc1c(C)n(Cc2ccc(Cl)cc2)c2c(CN(C)c3ccc(F)cc3)nccc12 [Example 113, hydrochloride]
2. Cc1ccc(Cn2c(C)c(C)c3ccnc(COc4ccc(C)cc4)c32)cc1 [Example 17, hydrochloride]
3. Cc1[nH]c2c(N3CCc4ccccc4C3)nc(C(=O)N3CCCCC3)cc2c1C [Example 791, hydrochloride]

Result block:
1. 327
2. 430
3. 122

* * *

Assign IC50 to each entry below.
- study.system: Proton Pump (H^+/K^+-ATPase) (Sus scrofa)
- protocol.details: Inhibitory effects on proton pump (H^+/K^+-ATPase) activity
- Assay type: biochemical
- particulars: hog gastric vesicles; K^+ stimulated H^+/K^+-ATPase activity; 30 minutes at 37° C.
Where a name gives a salt, the structure may show the parent alone.
Provide a numeric answer, followed by its unit.

Record excerpt, results attached:
| compound | study.system | IC50 |
| --- | --- | --- |
| C=CCn1c(C)c(C)c2cc(C(=O)N3CCNCC3)nc(N3CCc4ccccc4C3)c21 [Example 811, hydrochloride] | Proton Pump (H^+/K^+-ATPase) (Sus scrofa) | 0.003 µM |
| C=CCn1c(C)c(C)c2ccnc(-c3ccc(C=C)cc3)c21 [Example 245, hydrochloride] | Proton Pump (H^+/K^+-ATPase) (Sus scrofa) | 0.1 µM |
| CCn1c(C)c(C)c2ccnc(NCc3ccc(F)cc3)c21 [Example 223, hydrochloride] | Proton Pump (H^+/K^+-ATPase) (Sus scrofa) | 0.44 µM |
| Cc1ccc(Cn2c(C)c(C)c3ccnc(C=Cc4ccccc4)c32)cc1 [Example 417, hydrochloride] | Proton Pump (H^+/K^+-ATPase) (Sus scrofa) | 0.37 µM |
| CCNC(=O)c1cc2c(C)c(C)n(Cc3ccccc3)c2c(N2CCc3ccccc3C2)n1 | Proton Pump (H^+/K^+-ATPase) (Sus scrofa) | 0.356 µM |
| Cc1ccc(Cn2c(C)c(C)c3ccnc(NCc4ccc(Cl)cc4)c32)cc1 [Example 221, hydrochloride] | Proton Pump (H^+/K^+-ATPase) (Sus scrofa) | 0.63 µM |

Below are some compounds; for each one, tell me its IC50.
1. Cc1ccc(CNc2nccc3c(C)c(C)n(CC4CC4)c23)cc1 [Example 204, hydrochloride]
2. Cc1c(C)n(Cc2ccccc2)c2c(NCc3ccc(F)cc3)nc(C(=O)N3CCOCC3)cc12 [Example 909, hydrochloride]

Result block:
1. 0.21 µM
2. 0.09 µM
